# target.of.assay: UniProt:P97321
# Sequence (P97321 whole entry): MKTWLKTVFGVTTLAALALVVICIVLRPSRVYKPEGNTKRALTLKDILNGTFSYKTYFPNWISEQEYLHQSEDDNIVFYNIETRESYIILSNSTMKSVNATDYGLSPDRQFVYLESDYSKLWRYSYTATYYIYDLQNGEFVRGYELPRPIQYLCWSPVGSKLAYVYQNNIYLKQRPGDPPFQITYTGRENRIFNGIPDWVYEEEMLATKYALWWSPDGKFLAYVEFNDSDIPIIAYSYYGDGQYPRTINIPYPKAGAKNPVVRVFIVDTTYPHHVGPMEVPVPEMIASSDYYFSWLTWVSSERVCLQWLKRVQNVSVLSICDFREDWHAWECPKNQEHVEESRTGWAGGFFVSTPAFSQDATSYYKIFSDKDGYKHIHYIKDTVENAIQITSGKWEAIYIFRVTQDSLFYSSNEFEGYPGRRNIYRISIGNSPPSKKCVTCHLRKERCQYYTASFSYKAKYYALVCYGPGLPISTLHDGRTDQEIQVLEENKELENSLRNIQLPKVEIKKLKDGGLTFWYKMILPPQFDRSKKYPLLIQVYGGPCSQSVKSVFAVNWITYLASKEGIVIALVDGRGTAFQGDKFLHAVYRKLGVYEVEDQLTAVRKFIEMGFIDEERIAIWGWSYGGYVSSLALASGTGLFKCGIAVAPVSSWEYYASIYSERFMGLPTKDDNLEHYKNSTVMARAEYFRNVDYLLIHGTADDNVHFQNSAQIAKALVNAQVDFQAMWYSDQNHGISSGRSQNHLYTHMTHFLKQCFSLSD
Hi! Just check whether IC50 is below 40 nM. Below gives yes, equal or above gives no.

Here's what some known entries look like.
compound | qualitative.label
CN(C)C(=N)NCCC[C@H](NC(=O)c1coc(CNC(=O)CCC(=O)N2CC(F)(F)C[C@H]2C#N)c1)C(=O)N[C@@H](CCCCN)C(=O)O [Compound 4] | no
N#C[C@@H]1CC(F)(F)CN1C(=O)CNC(=O)c1ccnc2c(NC(=O)CCC(=O)O)cccc12 [Compound 8, reference compound] | yes
C#CC[C@H](NC(=O)[C@H](CCCNC(=N)N(C)C)NC(=O)CCC(=O)Nc1cccc2c(C(=O)NCC(=O)N3CC(F)(F)C[C@H]3C#N)ccnc12)C(=O)N[C@@H](CCCCN)C(=O)O [Compound 9] | yes
C#CC[C@@H](NC(=O)[C@H](CCCNC(=N)N(C)C)NC(=O)c1coc(CNC(=O)CCC(=O)N2CC(F)(F)C[C@H]2C#N)c1)C(=O)N[C@@H](CCCCN)C(=O)O [Compound 3] | yes

As a next step, examine the compound that follows.
Asked: Criterion: IC50 strictly below 40 nM. Is it met by C#CC[C@H](NC(=O)CCC(=O)N1CC(F)(F)C[C@H]1C#N)C(=O)N[C@@H](CCCCN)C(=O)O [Compound 6] ?
Given back: no
